Let's look at some binders and their measured EC50.
Biological target: T1, human NKp30-his protein (KACTUS; Cat: NKP-HM430) (human, UniProt O14931 19-135, limits assumed)
T1 construct: Bought protein (KACTUS NKP-HM430); not shown: His tag
T1 sequence (looked up): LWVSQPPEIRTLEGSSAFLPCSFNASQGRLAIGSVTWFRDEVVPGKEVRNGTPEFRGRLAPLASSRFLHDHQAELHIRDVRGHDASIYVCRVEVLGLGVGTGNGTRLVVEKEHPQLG
Assay: ELISA, Human-NKp30-His coated at 0.2 µg/mL, antibody from 10 µg/mL in 3-fold steps, goat anti-human Fc, OD450 (Example 11)
Express the result in ng/mL but write the number alone.

Guide cases for EC50, answers given:
| binder | EC50 [ng/mL] |
| --- | --- |
| antibody 18 (antibody, V domains shown, expressed in CHO cells; also called chimeric antibody 18) VH: EVQLVESGGGLVQPGGSLRLSCAAAGIRFSIANMGWYRQAPGKLHEMVAGITSDGFTNYADSVKGRFTISRDNAKNTVYLQMNNLKPEDTAVYYCDSFPTRHYWGQGTQVTVSS | 2.51 |
| antibody 23 (antibody, V domains shown, expressed in CHO cells; also called chimeric antibody 23) VH: EVQLVESGGGLVQPGGSLRLSCAASGSIFSPNGIGWYRQAPGKLRELVAGITGNGLTDYADSVKGRFTISRDSAKNTVYLQMNSLKTEDTAVYYCNLLLNHAEWGQGTQVTVSS | 7.46 |
| antibody 10-hu2 (antibody, V domains shown) VH: EVQLVESGGGLVQPGGSLRLSCAASGITFSRSVMGWFRQAPGKLRELVAGITSDDNTDYADSVKGRFTISRDNSKNTLYLQMNSLRAEDTAVYYCARLPDSRLGWGQGTLVTVSS | 24.6 |

Next binder, please.
Query: Return EC50 (reported value) for this binder: antibody 10-hu5 (antibody, V domains shown) VH: EVQLVESGGGLVQPGGSLRLSCAVSGITFSRSVMGWFRQAPGKLRELVAGITSDDNTDYADSVKGRFTISRDNSKNTLYLQMNSLRAEDTAVYYCNILPDSRLGWGQGTLVTVSS
Response: 10.4
